system_name: T1, purified recombinant human α5β1 integrin heterodimer, 6×His tagged (rh-α5β1); Acro Biosystems, cat. no. … (human, UniProt P08648 42-995; P05556 21-728)
T1 construct: bought recombinant heterodimer; also called rh-α5β1-6×His tagged protein; His-tagged-α5β1
experimental_protocol: BLI (Octet), supernatant mAb on anti-mouse IgG Fc sensor, 20 nM rh-α5β1
assay_endpoint: kon (M⁻¹ s⁻¹)
Answer in M⁻¹ s⁻¹, number only, no unit symbol.

binder	kon, M⁻¹ s⁻¹
A2-8H11 (antibody, V domains shown, mouse hybridoma antibody) VH: QVQLKESGPGLVAPSQSLSITCTISGFSLTTYGVHWVRQPPGKGLEWLVVIWSDGSTTYNSALKSRLNITKDNSKSQVFLKMNSLQTDDTAMYYCVRHGGLLRRDAMDYWGQGTSVTVSS VL: QIVLTQSPAIMSASLGERVTMTCTASSSVSSNSFHWYQQKPGSSPKLWLYSTSNLASGVPARFSGSGSGTSYSLTISSMEAEDAATYYCHQYLRSPPTFGGGTKLEIK	289000

Now consider a different binder.
What does the record list as kon for C-8G11 (antibody, V domains shown, mouse hybridoma antibody) VH: QVQLKESGPDLVAPSQSLSITCTVSGFSLTDYGVHWVRQPPGKGLEWLVVIWSDGSTTYNSALKSRLSITKDTSKRQVFLKMNSLQTDDTAMYYCARHAPSFIRYGSRYDALDYWGQGTSVTVSS VL: QIVLTQSPAIMSASLGERVTLTCTASSSVTSSFLHWYQQKPGSSPKLWIYSTSNLASGVPARFSGSGSGTSYSLTISSMEAEDAATYYCHQYHRSPPTFGGGTKLEIK ?
271000
